Below, each entry is listed with its recorded Latency of stereotype jumps.
# Test system: male Wistar rats
# MEASUREMENT_PROTOCOL: Withdrawal syndrome due to naloxone administration in morphine-treated rats
# Assay type: in vivo
# CONDITION: morphine for 10 days, then naloxone 1 mg/kg subcutaneous; cut-off time 900 sec.
Field: numeric (s). Do not append units.

- CC(C)CC(=O)O[C@H](CC(=O)OCCCC(=O)[O-])C[N+](C)(C)C: 564
- CC(C)CC(=O)O[C@H](CC(=O)[O-])C[N+](C)(C)C: 480
- CC(=O)OC(CC(=O)[O-])C[N+](C)(C)C (stereo not shown): 465

Ask: Specify measured Latency of stereotype jumps for O=C(O)CCCO [GHB, gamma-hydroxybutyric acid] .
Reply: 451
